Data provenance: PubChem BioAssay (NCI)

Assay details: NCI Yeast Anticancer Drug Screen. Data for the rad50 strain (AID 155);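 note: 0% = growth of vehicle-only cultures of the same strain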
Recorded conditions: S. cerevisiae rad50 strain growth inhibition; at 50.0 µM (retest, dose inferred, filed as 5.0); stronger effect = higher value
The panel holds about 79,000 compounds, 15% with a hit somewhere; the sample as a whole holds those more often.
Parameter: growth inhibition (%)
Unit % implied. Number only.

1. O=C(O)C(O)Cc1ccc(O)cc1 (configuration not stated)
-144
2. CCCCCCCCCCCC(O)=C1C(=O)CC(O)CC1=O (configuration not stated)
88
3. O=C(O)CSCc1cc2c3ccccc3sc2c2ccccc12
99
4. CC(=O)O[C@@H]1CC(C)C2CC2C2=C(C(O)OC2O)[C@@H]1C(C)CCC=C(C)C (some centres not stated)
98
5. CCOC(=O)C1SC(=S)N(C)C1=O (configuration not stated)
99

Now for the compound whose growth inhibition we want.
## Task Given the compound O=C1C=CC(=NN=C(c2ccccc2)c2ccccc2)C=C1 , what is its reported growth inhibition?
## Result -1
